Each recorded value in this set is attributed to patent US20240109974A1.

// % Relative activity (WT antibody/test antibody) lookup, one value per entry
test-target: T1, Cynomolgus TNFR2-His (Sino 90102-C08H) (cynomolgus monkey, UniProt A0A2K5VET2 132-366)
T1 construct: Bought protein; also called cynomolgus monkey TNFR2; recombinant cynomolgus monkey TNFR2 protein; not shown: His tag
T1 sequence: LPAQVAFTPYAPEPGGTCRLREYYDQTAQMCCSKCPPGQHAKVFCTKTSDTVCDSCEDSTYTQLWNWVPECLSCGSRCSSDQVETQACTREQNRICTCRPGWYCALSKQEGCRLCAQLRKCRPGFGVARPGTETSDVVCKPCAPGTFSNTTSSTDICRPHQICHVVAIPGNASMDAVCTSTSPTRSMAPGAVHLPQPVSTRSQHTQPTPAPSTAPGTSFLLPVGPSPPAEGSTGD
assay-overview: ELISA, cynomolgus TNFR2-His coated; EC50 against 219-WT
measured-endpoint: % Relative activity (WT antibody/test antibody) (%)

| binder | experimental-value |
| --- | --- |
| 219-Hu2 (antibody, V domains shown, also called VH4 + VL5) VH: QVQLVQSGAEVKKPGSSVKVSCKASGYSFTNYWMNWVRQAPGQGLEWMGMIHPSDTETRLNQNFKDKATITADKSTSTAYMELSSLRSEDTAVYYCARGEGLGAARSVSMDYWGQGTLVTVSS VL: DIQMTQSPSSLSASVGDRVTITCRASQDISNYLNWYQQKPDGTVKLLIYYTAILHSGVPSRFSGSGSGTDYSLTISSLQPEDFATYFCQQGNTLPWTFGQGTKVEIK | 102 |
| 219-Hu1 (antibody, V domains shown, also called VH3 + VL5) VH: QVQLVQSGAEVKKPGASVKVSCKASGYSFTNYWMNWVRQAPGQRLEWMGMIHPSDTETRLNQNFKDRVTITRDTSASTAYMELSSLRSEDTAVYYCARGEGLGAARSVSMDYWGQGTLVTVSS VL: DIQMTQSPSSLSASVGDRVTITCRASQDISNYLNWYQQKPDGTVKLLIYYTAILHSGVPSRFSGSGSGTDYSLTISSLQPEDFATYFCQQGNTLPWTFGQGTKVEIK | 77.5 |
| 219-Hu3 (antibody, V domains shown, also called VH5 + VL5) VH: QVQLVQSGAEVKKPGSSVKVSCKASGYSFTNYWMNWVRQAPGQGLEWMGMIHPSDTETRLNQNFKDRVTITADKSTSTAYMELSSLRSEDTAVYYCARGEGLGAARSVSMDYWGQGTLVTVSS VL: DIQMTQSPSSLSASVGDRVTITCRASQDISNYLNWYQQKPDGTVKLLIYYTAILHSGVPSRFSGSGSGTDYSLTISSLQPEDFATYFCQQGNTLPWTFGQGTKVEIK | 90.4 |
